Recorded kon, one value per entry.
- assayed_system: T1, EGFRvIII extracellular domain (EGFR (1-29)-G-(298-645)-LESRGPF-Myc-NMHTG-6His) (human, UniProt P00533 298-641)
- T1 construct: also called recombinant EGFRvIII; not shown: Myc tag
- assay: SPR (Biacore), antibody captured via anti-human Fc, antigen injected
Use M⁻¹ s⁻¹ as the unit, but write only the number.

Give kon for Antibody E (AbE) (antibody, V domains shown, Full length IgG1) VH: EVQLQESGPGLVKPSQTLSLTCTVSGYSISSDFAWNWIRQPPGKGLEWMGYISYSGNTRYQPSLKSRITISRDTSKNQFFLKLNSVTAADTATYYCVTAGRGFPYWGQGTLVTVSS VL: DIQMTQSPSSMSVSVGDRVTITCHSSQDINSNLGWLQQKPGKSFKGLIYHGSNLDHGVPSRFSGSGSGTDYTLTISSLQPEDFATYYCVQYDQFPWTFGGGTKLEIK
193000

Give kon for Antibody K (AbK) (antibody, V domains shown, Full length IgG1) VH: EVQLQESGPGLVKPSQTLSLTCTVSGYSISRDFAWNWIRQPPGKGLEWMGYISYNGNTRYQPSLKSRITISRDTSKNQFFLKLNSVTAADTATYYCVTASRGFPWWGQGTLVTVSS VL: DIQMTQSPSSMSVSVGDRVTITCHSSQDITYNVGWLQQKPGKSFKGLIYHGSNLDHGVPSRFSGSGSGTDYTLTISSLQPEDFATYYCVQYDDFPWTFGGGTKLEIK
130000

Give kon for Antibody G (AbG) (antibody, V domains shown, Full length IgG1) VH: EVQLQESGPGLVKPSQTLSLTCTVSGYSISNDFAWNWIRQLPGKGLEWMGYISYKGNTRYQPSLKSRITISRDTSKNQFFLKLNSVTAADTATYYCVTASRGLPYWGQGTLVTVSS VL: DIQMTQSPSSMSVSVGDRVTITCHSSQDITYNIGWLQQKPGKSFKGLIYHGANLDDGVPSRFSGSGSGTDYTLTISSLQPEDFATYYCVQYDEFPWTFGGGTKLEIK
374000

Data origin, for the record: patent US20150337042A1
